Biological target: IL-17A/A (Homo sapiens, UniProt Q16552)
Construct: purchased Genscript Z03228
Sequence (Q16552 24-155): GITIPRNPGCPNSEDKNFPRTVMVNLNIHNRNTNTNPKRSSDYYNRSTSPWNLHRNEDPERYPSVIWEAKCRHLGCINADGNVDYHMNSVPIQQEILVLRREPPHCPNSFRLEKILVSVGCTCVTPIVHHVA
Assay: IL-17A/A HEK-Blue Cell Assay
Type: cell-based
Settings: HEK-Blue IL-17A reporter cell line, SEAP readout at A630, 20 hours incubation with IL-17A/A; top concentration 10 uM, 1 uM or 0.3 uM; read-out: IL-17A/A inhibition (pIC50) (converted)
recorded-metric: IC50

Solved cases below.
>>> measured("CCC(=O)N[C@@H](C(=O)N1CCN(C)CC1)[C@@H](C)c1ccc(NC(=O)[C@@H](NC(=O)C(F)(F)C23CC(C2)C3)C2CCCCC2)c(F)c1")
"0.1 to 10 µM"
>>> measured("CCC(=O)N[C@@H](C(=O)N1C[C@@H](C)N(C)[C@@H](C)C1)[C@@H](C)c1ccc(NC(=O)[C@@H](NC(=O)c2nonc2CC)[C@H]2CC[C@H](C)CC2)c(F)c1")
"< 0.01 µM"

IN: Given the entry CCC(=O)N[C@@H](C(=O)N1CCN(C)CC1)[C@@H](C)c1ccc(NC(=O)[C@@H](NC(=O)c2nonc2C(C)C)[C@H]2CC[C@H](C)CC2)c(F)c1 , report its measured IC50.
OUT: < 0.01 µM
